These data points were gathered from patent US20180008587A1.

Below: a set of entries, each annotated with reported IC50.
# study_target: F876L mutant Androgen Receptor (AR-F876L) (Homo sapiens, UniProt P10275, F877L)
# Construct: expressed in transfected cells; host or cells: LNCaP (LNCaP F876L)
# Sequence (P10275 1-920 F877L): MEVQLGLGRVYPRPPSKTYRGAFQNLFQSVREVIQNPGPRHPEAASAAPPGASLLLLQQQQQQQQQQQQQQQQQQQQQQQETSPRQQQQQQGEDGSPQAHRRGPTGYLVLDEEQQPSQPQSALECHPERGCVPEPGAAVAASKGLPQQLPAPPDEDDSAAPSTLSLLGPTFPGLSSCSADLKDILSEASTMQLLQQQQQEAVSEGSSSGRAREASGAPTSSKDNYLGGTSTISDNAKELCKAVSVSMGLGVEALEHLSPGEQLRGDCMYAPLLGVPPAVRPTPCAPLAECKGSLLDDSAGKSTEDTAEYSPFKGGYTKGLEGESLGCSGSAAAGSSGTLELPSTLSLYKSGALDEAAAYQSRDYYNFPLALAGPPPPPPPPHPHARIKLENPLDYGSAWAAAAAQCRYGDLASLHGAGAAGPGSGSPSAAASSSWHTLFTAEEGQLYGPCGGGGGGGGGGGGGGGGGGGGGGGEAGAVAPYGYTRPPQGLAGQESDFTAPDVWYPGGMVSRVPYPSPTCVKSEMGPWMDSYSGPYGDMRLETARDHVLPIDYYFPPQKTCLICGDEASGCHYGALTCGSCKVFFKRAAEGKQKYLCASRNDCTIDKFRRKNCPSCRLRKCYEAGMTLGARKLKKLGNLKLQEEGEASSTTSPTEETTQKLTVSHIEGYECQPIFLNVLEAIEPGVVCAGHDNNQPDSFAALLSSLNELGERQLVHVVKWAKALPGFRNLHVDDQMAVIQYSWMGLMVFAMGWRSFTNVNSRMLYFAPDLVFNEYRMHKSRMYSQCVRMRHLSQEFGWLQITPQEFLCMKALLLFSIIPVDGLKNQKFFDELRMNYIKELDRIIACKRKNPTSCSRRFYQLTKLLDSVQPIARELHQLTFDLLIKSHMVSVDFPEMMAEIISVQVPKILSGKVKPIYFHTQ
# assay_info: LNCaP-AR-F876L ANT reporter assay (ARE firefly luciferase, antagonist mode)
# Format: cell-based
# condition_description: read-out: LNCaP-AR-F876L ANT pIC50 (converted)
measurement_label: IC50 (nM)

N#Cc1ncc(N2C(=O)C3(CCC3)N(c3cccnc3)C2=S)cc1C(F)(F)F 692
CCCCNC(=O)c1ccc(N2C(=S)N(c3cnc(C#N)c(C(F)(F)F)c3)C(=O)C23CCC3)cc1F 204
CN1CCC(Oc2ccc(N3C(=S)N(c4cnc(C#N)c(C(F)(F)F)c4)C(=O)C3(C)C)cc2)CC1 525

----------
# study_target: wild-type Androgen Receptor (AR-wt) (Homo sapiens)
# Construct: expressed in transfected cells; host or cells: LNCaP (LNCaP AR (cs))
# Sequence (P10275 1-920): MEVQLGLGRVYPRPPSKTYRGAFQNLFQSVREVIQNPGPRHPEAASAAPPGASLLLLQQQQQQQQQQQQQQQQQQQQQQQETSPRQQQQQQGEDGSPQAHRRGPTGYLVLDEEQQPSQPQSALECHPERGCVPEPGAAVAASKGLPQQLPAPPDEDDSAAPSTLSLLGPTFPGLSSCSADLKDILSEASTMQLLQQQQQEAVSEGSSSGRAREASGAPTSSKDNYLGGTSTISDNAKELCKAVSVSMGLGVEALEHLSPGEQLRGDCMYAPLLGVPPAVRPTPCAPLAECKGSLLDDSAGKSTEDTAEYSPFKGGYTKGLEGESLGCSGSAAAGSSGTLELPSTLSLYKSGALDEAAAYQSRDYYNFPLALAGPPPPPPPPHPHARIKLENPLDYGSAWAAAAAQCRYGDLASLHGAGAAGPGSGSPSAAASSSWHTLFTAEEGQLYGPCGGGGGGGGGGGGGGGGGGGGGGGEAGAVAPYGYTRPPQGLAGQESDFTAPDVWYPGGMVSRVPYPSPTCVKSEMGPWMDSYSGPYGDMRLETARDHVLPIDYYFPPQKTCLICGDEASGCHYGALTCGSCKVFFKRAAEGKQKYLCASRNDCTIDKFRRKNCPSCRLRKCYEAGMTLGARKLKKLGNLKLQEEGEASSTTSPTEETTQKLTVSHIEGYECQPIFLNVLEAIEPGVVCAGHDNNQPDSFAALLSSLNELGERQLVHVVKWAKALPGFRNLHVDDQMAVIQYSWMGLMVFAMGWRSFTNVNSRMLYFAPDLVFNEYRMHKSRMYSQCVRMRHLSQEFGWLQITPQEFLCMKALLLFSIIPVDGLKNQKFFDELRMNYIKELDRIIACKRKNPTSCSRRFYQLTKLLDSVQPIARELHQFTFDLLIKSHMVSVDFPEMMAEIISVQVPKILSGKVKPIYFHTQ
# assay_info: LNCaP-AR-wt AG reporter assay (ARE firefly luciferase, agonist mode)
# Type: cell-based
# condition_description: maximum % stimulation (agonist response) over tested concentration range; read-out: LNCaP-AR-wt AG MAX % Stim
In this section, each of the molecules is paired with its reported Emax.

molecule	measure_unit	Emax
CCOC(=O)CCCNC(=O)c1ccc(N2C(=S)N(c3cnc(C#N)c(C(F)(F)F)c3)C(=O)C23CCC3)cc1F [Cpd 82]	%	0
N#Cc1ncc(N2C(=O)C3(CCC3)N(c3ccc(C(=O)NCCCN4CCCC4=O)c(F)c3)C2=S)cc1C(F)(F)F [Cpd 37]	%	0.3
N#Cc1ncc(N2C(=O)C3(CCC3)N(c3ccc(C4CCOCC4)cc3)C2=S)cc1C(F)(F)F [Cpd 89]	%	0.3
N#Cc1cccc(N2C(=S)N(c3cnc(C#N)c(C(F)(F)F)c3)C(=O)C23CCC3)c1 [Cpd 79]	%	1.6
Cc1cc(N2C(=O)C3(CCC3)N(c3ccc(-c4cncc(F)c4)cc3)C2=S)cnc1C#N [Cpd 104]	%	2.7
N#Cc1ncc(N2C(=O)C3(CCC3)N(c3ccc(C(=O)NCc4ccc(Cl)cc4)c(F)c3)C2=S)cc1C(F)(F)F [Cpd 53]	%	1
CN1CCC(Oc2ccc(N3C(=S)N(c4cnc(C#N)c(C(F)(F)F)c4)C(=O)C34CCC4)cc2)CC1 [Cpd 85]	%	0.2
Cc1cc(N2C(=O)C3(CCC3)N(c3ccc(OC4CCN(C)CC4)c(F)c3)C2=S)cnc1C#N [Cpd 116]	%	1.1
N#Cc1ncc(N2C(=O)C3(CCC3)N(c3ccc(C(N)=O)c(F)c3)C2=S)cc1C(F)(F)F [Cpd 80]	%	0.4
COCCOc1ccc(N2C(=S)N(c3cnc(C#N)c(C)c3)C(=O)C23CCC3)cc1F [Cpd 100]	%	1.8
N#Cc1ncc(N2C(=O)C3(CCC3)N(c3cccc(Oc4ccccc4)c3)C2=S)cc1C(F)(F)F [Cpd 20]	%	1.3
N#Cc1ncc(N2C(=O)C3(CCC3)N(c3ccc(C(=O)NCC4CCCC4)c(F)c3)C2=S)cc1C(F)(F)F [Cpd 21]	%	-0.2
N#Cc1ncc(N2C(=O)C3(CCC3)N(c3cccc(F)c3)C2=S)cc1C(F)(F)F [Cpd 90]	%	0.5
Cc1ccc(CNC(=O)c2ccc(N3C(=S)N(c4cnc(C#N)c(C(F)(F)F)c4)C(=O)C34CCC4)cc2F)o1 [Cpd 26]	%	1.1
CC(C)NC(=O)c1ccc(N2C(=S)N(c3cnc(C#N)c(C(F)(F)F)c3)C(=O)C23CCC3)cc1F [Cpd 23]	%	0.9

----------
# study_target: wild-type Androgen Receptor (AR-wt) (Homo sapiens, UniProt P10275)
# Construct: expressed in transfected cells; host or cells: LNCaP (LNCaP AR (cs))
# assay_info: LNCaP-AR-wt ANT reporter assay (ARE firefly luciferase, antagonist mode)
# Type: cell-based
# condition_description: antagonist mode, 400 pM R-1881 challenge; −Log10(IC50 [Molar]); read-out: LNCaP-AR-wt ANT pIC50 (converted)
measurement_label: IC50

N#Cc1ncc(N2C(=O)C3(CCC3)N(c3cccc(F)c3)C2=S)cc1C(F)(F)F 513 nM
N#Cc1ncc(N2C(=O)C3(CCC3)N(c3ccc(OCCN4CCCC4)c(F)c3)C2=S)cc1C(F)(F)F 1150 nM
Cc1cc(N2C(=O)C3(CCC3)N(c3ccc(OC4CCS(=O)(=O)CC4)cc3)C2=S)cnc1C#N 646 nM
N#Cc1ncc(N2C(=O)C3(CCC3)N(c3ccc(C(=O)NCc4cccs4)c(F)c3)C2=S)cc1C(F)(F)F 1290 nM
N#Cc1ncc(N2C(=O)C3(CCC3)N(c3ccc(OCCN4CCNCC4)c(F)c3)C2=S)cc1C(F)(F)F 575 nM
N#Cc1ncc(N2C(=O)C3(CCC3)N(c3ccc(C(=O)NCCN4CCOCC4)c(F)c3)C2=S)cc1C(F)(F)F 2450 nM
COCCCNC(=O)c1ccc(N2C(=S)N(c3cnc(C#N)c(C(F)(F)F)c3)C(=O)C23CCC3)cc1F 331 nM
CNC(=O)c1ccc(N2C(=S)N(c3cnc(C#N)c(C)c3)C(=O)C2(C)C)cc1F 1740 nM
